Reported growth inhibition is given for each of the following compounds.
# test-name: NCI Yeast Anticancer Drug Screen. Data for the cln2 rad14 strain (AID 165);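 further: 0% = growth equal to vehicle treated cultures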
# assay-setup: S. cerevisiae cln2 rad14 strain, at 50.0 µM, active compounds read high
This is part of a sample that, as a whole, favours compounds with a hit. Of some 79,000 tested, about 15% had one in any assay. Where a SMILES comes first, the peptide text is derived from it. The star is where a group is joined. Cbz = O=C(OCc1ccccc1)*

| compound | growth inhibition [%] |
| --- | --- |
| Cn1c(=O)c2c(n(C)c1=O)n(C)c(=O)n2C | 12.7 |
| CC(=O)CC(C)(C)NC(=S)NCCO | -29.4 |
| CSc1nc(-c2ccccc2)c2c(n1)-c1ccccc1CC2 | -2.4 |
| Cc1[nH]c(=O)c(C#N)c(C)c1[N+](=O)[O-] | -35.7 |
| O=C(CN1CCC(O)(c2ccccc2)CC1)N1CCN(/C=C/c2ccccc2)CC1 | -10.6 |
| COc1ccc(/C=N\O[Si](C)(C)C(C)(C)C)cc1O[Si](C)(C)C(C)(C)C | 5.05 |
| O=C(NC1CCCCC1)NC12CC3CC(CC(F)(C3)C1)C2 | 5.65 |
| COc1c(C)c(OC)c(C(=O)CC(C)C)c(OC)c1C | 20.4 |
| CCOC(=O)CCC(NC(=O)OCc1ccccc1)C(=O)NC(CCC(=O)OCC)C(=O)OCC (configuration not stated) (Cbz-Glu(OEt)-Glu(OEt)-OEt; configuration not given here) | 7.55 |
| COC(=O)CC(C)N(c1cccc(Cl)c1)S(=O)(=O)c1ccc(C)cc1 (configuration not stated) | -30.9 |
| CCCCOC(=O)CNC(=O)OC/C=C/C#CC#C/C=C/COC(=O)NCC(=O)OCCCC | -17.9 |
| COc1ccc(/C=C\c2cc(OC)c(OC)c(OC)c2)cc1OC(=O)CC(N)C(=O)O (configuration not stated) | -6.65 |
| CCCCCCCCn1c(N)c(C#N)cnc1=S | -20.2 |
| CCn1c(=O)ccc2ccc(N(CCO)CCO)nc21 | -3.6 |
| COc1ccc(CCCc2cc3c(cc2OC)OCO3)cc1 | -8.65 |
| C1CSC(SCCCSC2SCCCS2)SC1 | -7.1 |
| CC(C)CCCCC(C)(C)OC(=O)NC(N)=O | 17.1 |
| Cc1ccc(C(=O)OC2C(OC(=O)Nc3ccccc3)OC(COC(=O)c3ccccc3)C2OC(=O)c2ccccc2)cc1 (configuration not stated) | 13.8 |
| CC(O)COC1CCCCC1 (configuration not stated) | -7.25 |
| Cc1ccc(-c2c3c(n(C4OC(CO)C(O)C(O)C4O)c(=S)c2C#N)CC(C)(C)CC3=O)cc1 (configuration not stated) | -8.95 |
| COc1ccc2nc(NC(=O)Nc3ccc(Cc4ccc(NC(=O)Nc5nc6ccc(OC)cc6s5)cc4)cc3)sc2c1 | 10.3 |
| Cc1nc(Nc2ccc([N+](=O)[O-])cc2)sc1C(=O)/C=C/c1ccc(N(C)C)cc1 | 16.2 |

---

growth inhibition values by entry
# test-name: NCI Yeast Anticancer Drug Screen. Data for the mec2-1 strain (AID 157)
# assay-setup: S. cerevisiae mec2-1 strain, at 50.0 µM, active compounds read high
Compounds without any hit were thinned out: in the full panel of roughly 79,000, 15% have a hit.

| compound | growth inhibition / % |
| --- | --- |
| C/C(=N/Nc1ccc([N+](=O)[O-])cc1[N+](=O)[O-])c1ccccc1 | -13.2 |
| N#CC(NNC(=O)c1ccccc1O)c1ccccc1 (stereo not drawn) | 0.5 |
| NC(CCNCCc1ccccc1)CNCCc1ccccc1 (stereo not drawn) | -11.6 |
| COc1ccc(-n2[nH]nc(C(N)=O)c2=O)cc1 | -2.5 |
| Cc1ccc(-n2cnc3c(Cl)ncnc32)cc1 | -0.05 |
| C=C[C@@]1(C)CC(=O)[C@]2(O)[C@@]3(C)[C@@H](O)CCC(C)(C)[C@@H]3[C@H](O)[C@@H](OC(C)=O)[C@@]2(C)O1 | -4.4 |
| Cc1ccc(-c2nn[nH]n2)cc1[N+](=O)[O-] | 8.6 |
| O=S(=O)(O)c1cc(S(=O)(=O)O)c2c(N=Nc3cccc4ccccc34)c(O)ccc2c1 | -9.25 |
| Cc1ccc(/C([O-])=C(/C(=S)Nc2ccccc2)[n+]2ccccc2)cc1 | 22 |
| O=c1[nH]nc(-c2ccccc2)n1/N=C\c1ccccc1 | -10.3 |
| O=NN(CCF)C(=O)N[C@H]1CCCC[C@H]1O | -19.1 |
| COc1cccc(NCC(=O)Nn2c(-c3ccccc3)nc3ccccc3c2=O)c1 | -40.8 |
| O=[N+]([O-])c1ccc(Sc2c3ccccc3nc3cc(Cl)ccc23)cc1 | -18.3 |
| O=C(O)CCc1ccccc1-c1ccccc1C(=O)O | 1.45 |
| O=C(c1ccccc1)c1ccccc1 | 2.35 |
| CC1=NN(c2cccc([N+](=O)[O-])c2)C(=O)C1 | -25 |
| O=C1Nc2ccccc2Nc2nc3cccccc-3c21 | -15.2 |
| CCCCCCCCCCCCCCCCCCCCCCCCCCCC | -10.1 |
| CCN(CC)C(=O)Oc1cc(C(=O)N(CC)CC)c(OC(=O)N(CC)CC)cc1C(=O)N(CC)CC | 8.15 |
| CSC1(C)C(=O)Nc2ccccc21 (stereo not drawn) | -9.65 |
| CNC1(C(N)=O)CCN(Cc2ccccc2)CC1 | -10.3 |
| CCO/C=C(/C#N)C(=O)OCC | -11.9 |
| O=C1c2ccccc2C(=O)N1NC1=NCCN1 | -13.3 |
| CC1CCC2(C)CCC3(C)C(=CCC4C5(C)CCC(O)C(C)(C)C5CCC43C)C2C1C (stereo not drawn) (tested in a mixture with another compound) | -20.8 |
| CCCCCNC(=O)c1csc(-c2csc(CCNC(C)=O)n2)n1 | 4.85 |
| N#Cc1c2nc3ccccc3nc2n2ccccc12 | 19.4 |
| CCNC(=O)C1CC2C=CC1C2 (stereo not drawn) | 2.1 |
| NC(=S)N/N=C1/CCCC/C1=N/O | 33.1 |
| COc1ccc(/C=[N+](\[O-])[C@H](COCc2ccccc2)c2ccccc2)cc1 | -18.3 |
| C/C=C\C=N\NC(=O)C(=O)N/N=C/C=C\C | -17.1 |
| NC(=O)N/N=C1\CCCC(OC(=O)c2ccccc2)CC1 (stereo not drawn) | -27.7 |
| CCOc1ccc(C(C)(C)c2cc3c(cc2OC)OCO3)cc1 | -27.8 |
| Cc1ccc(-c2nc3ccccc3c(=O)o2)cc1 | -9.05 |
| CCc1nnc(N)o1 | 1.9 |
| O=C1C(O)C(c2ccccc2)c2ccccc2N1c1ccccc1 (stereo not drawn) | 5.35 |
| O=C1CC(c2ccccc2)=NCCN1 | 16.2 |
| Nc1ccccc1C(=O)ONC(=O)c1ccccc1 | 99.6 |
| COCCOC(=O)c1ccccc1O | 13.8 |
| Cc1c(CN2CCOCC2)c(CN2CCOCC2)c(C)n1-c1ccc(Cl)cn1 | 7.9 |
| c1ccc(C2=Nc3ccccc3N=C3CCCC32)cc1 (stereo not drawn) | 22.6 |
| CCOP(=O)(OCC)C(C(=O)OC)C(=O)C(=O)Nc1cccc([N+](=O)[O-])c1 (stereo not drawn) | -5.85 |
| CC(O)COC1CCCCC1 (stereo not drawn) | -10.9 |
| CCOC1=C2C(C)(CCC3[C@@]4(C)C=CC(=O)C(C)(C)C4CC(O)[C@@]23C)C(c2ccoc2)C1=O (stereo partly drawn) | 31 |
| Nc1ccc(CCCCOc2ccccc2)cc1 | 99 |
| c1ccc(CCc2nc3ccccc3[nH]2)cc1 | 11.1 |
| Cc1ccc(NC(=O)/C(Cc2nc3ccc([N+](=O)[O-])cc3[nH]c2=O)=N\NC(=O)C[n+]2ccccc2)c(C)c1 | -9.25 |
| NC(N)=Nc1nc2ccccc2[nH]1 | -2.85 |
| O=C(O)c1ccc(-c2c3ccc(=O)cc-3oc3cc(O)ccc23)cc1 | -30.1 |

---

# test-name: NCI Yeast Anticancer Drug Screen. Data for the cln2 rad14 strain (AID 165);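 further: 0% = growth equal to vehicle treated cultures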
# assay-setup: S. cerevisiae cln2 rad14 strain, at 50.0 µM, active compounds read high
Compounds without any hit were thinned out: in the full panel of roughly 79,000, 15% have a hit.
measurement-kind: growth inhibition (%)

| compound | value-units | assay-value |
| --- | --- | --- |
| O=C1CCCc2c1cc1c3c(cccc23)CC1 | % | -15.6 |
| O=C1OC(Cc2ccccc2)=N/C1=C/c1ccccc1 | % | -9 |
| CCCSc1ccc([N+](=O)[O-])cc1[N+](=O)[O-] | % | 1 |
| FC(F)(F)C(F)(F)C(F)(F)c1nnnn1-c1ccccc1 | % | 3.3 |
| Cc1ccc(NC(=O)Oc2ccc(F)cc2)cc1NC(=O)Oc1ccc(F)cc1 | % | 15.2 |
| Cc1cc(Cl)ccc1N=NC(=O)NNc1ccc(Cl)cc1C | % | -21.9 |
| CCOP(C)(=O)C(Cc1c[nH]c2ccccc12)C(=O)O (stereo not given) | % | 13 |
| CC(C)=NOC(=O)Nc1ccccc1 | % | -15.4 |
| CC(=O)OCC(=O)[C@@]1(O)CC[C@H]2[C@@H]3CCC4=CC(=O)CC[C@]4(C)[C@H]3[C@@H](O)C[C@@]21C | % | -20.3 |
| CC1=NN(c2ccccc2C)C(=O)C1 | % | -2.6 |
| CCN(C(=O)/C=C/c1ccccc1)C1CCCCC1 | % | 47.2 |
| NCCCCCC(N)=O | % | 21.2 |
| N#CCCN(c1ccc(C=Nc2ccc(C(=O)O)cc2)cc1)S(=O)(=O)c1ccccc1 | % | 5.75 |
| O=C(CO)c1ccccc1 | % | 25.6 |
| OCCOCC#CCOCCO | % | -7.45 |
| O=C(NC1CCCCC1)N(C1CCCCC1)C1CCCCC1 | % | 2.85 |
| O=C(CN(Cc1ccccc1)Cc1ccccc1)NC(=O)c1ccccc1 | % | -36.4 |
| Cn1c2ccccc2c(=S)c2c(O)cc3c(c21)C=CC(C)(C)O3 | % | 22.9 |
| C[N+](C)(CCCn1ccnc1[N+](=O)[O-])CCCn1ccnc1[N+](=O)[O-] | % | 3.55 |
| COc1cc2c(cc1C1=NC(C)(C)CO1)OCO2 | % | -0.6 |
| O=C(O)c1cc(-c2ccccc2)ccc1O | % | 25.2 |
| CC(C)(C)C1=CC(=O)C(C#N)(C(C)(C)C)C1=O (stereo not given) | % | -36 |
| COc1ccc2[nH]c3c(c2c1)[C@H](c1ccccc1)C[C@@H]1C(=O)N(c2ccccc2)C(=O)[C@H]31 | % | 0.65 |
| COC1(C)O[C@@]2(C)c3ccccc3C(=O)[C@@]2(c2ccccc2)O1 (stereo not given in full) | % | -11.5 |
| Cc1cc(Cl)ncc1[N+](=O)[O-] | % | -15.9 |
